Reference source for all entries: PubChem BioAssay (NCI)

# System: A549 NSCLC
# Test Method Notes: NCI tumour cell line growth inhibition, 48 h
Kindly supply the reported TGI values for the records listed here.

Ask | Item under review: COc1cc2c(cc1OC)C(=O)N(c1ccc(O)cc1)C2 . Reported TGI?
Reply | > 100 µM

Ask | Repeat with CS(=O)(=O)c1nccc(-c2c(-c3cccc(OCc4ccc(F)cc4)c3)nc3sccn23)n1
Reply | > 100 µM

Ask | Repeat with O=C(CCN1CCCCC1CCO)Nc1ccc2c(c1)C(=O)c1ccc(NC(=O)CCN3CCCCC3CCO)cc1C2=O (stereo unspecified)
Reply | 41.1 µM

Ask | Repeat with O=C1CCC2(c3ccc(F)cc3)Nc3ccccc3N12 (stereo unspecified)
Reply | > 100 µM

Ask | Repeat with CC1OCC2OC(C)OC(C3C4=C(CC(C)(C)CC4=O)OC4=C3C(=O)CC(C)(C)C4)C2O1 (stereo unspecified)
Reply | > 100 µM

Ask | Repeat with COc1ccc(-c2nc3ncccn3c2-c2ccc(S(C)=O)cc2)cc1 (stereo unspecified)
Reply | > 100 µM

Ask | Repeat with CC(NC(=O)c1ccccc1)C(=O)N(Cc1ccccc1)Cc1ccccc1 (stereo unspecified)
Reply | > 100 µM

Ask | Repeat with COc1ccc2nc3ccc(OC)cc3c(S(=O)Cc3ccc([N+](=O)[O-])cc3)c2c1 (stereo unspecified)
Reply | > 58 µM

Ask | Repeat with Nc1cc2c(cc1[N+](=O)[O-])[nH]c1c(-c3ccccc3)nccc12
Reply | 69.6 µM

Ask | Repeat with CCOC(C)OCC#CCCBr (stereo unspecified)
Reply | > 100 µM

Ask | Repeat with COc1ccc(C[C@@H]2CN(C(=O)c3ccccc3)[C@H](Cc3ccc(O)cc3)CN2C(=O)c2ccccc2)cc1Br
Reply | > 100 µM

Ask | Repeat with O=[N+]([O-])/C(C(Cl)=C(Cl)Cl)=C1\Nc2ccccc2O1
Reply | > 100 µM

Ask | Repeat with O=C(NNc1nc2cc(F)ccc2n2c(CN3CCOCC3)ccc12)c1ccccc1
Reply | 2.25 µM

Ask | Repeat with C=C1C(=O)O[C@@H]2C[C@]3(C)[C@@H](C[C@H]12)[C@](C)(O)CC[C@@H]3O
Reply | > 100 µM

Ask | Repeat with CCOC(=O)c1ccc(NC2Oc3cc4c(cc3C(c3cc(OC)c(OC)c(OC)c3)C2C)OCO4)cc1 (stereo unspecified)
Reply | > 73.2 µM

Ask | Repeat with c1cc(-c2cscc2-c2ccsc2)cs1
Reply | > 100 µM

Ask | Repeat with COc1ccc(-n2c(CCCC(=O)O)nc3c2C(=O)c2ccccc2C3=O)cc1
Reply | > 100 µM

Ask | Repeat with O=C1CC(NC(=O)C(F)(F)F)c2c(Br)sc(N3CCC(c4ccccc4)CC3)c21 (stereo unspecified)
Reply | > 100 µM

Ask | Repeat with COc1ccc(C2SCC(=O)N2N=C2NC(=O)CC(=O)N2)cc1 (stereo unspecified)
Reply | > 100 µM

Ask | Repeat with O=C1C=C(SCCO)C(=O)c2ccccc21
Reply | 4.59 µM

Ask | Repeat with CC(C)(C)C1CC[C@H]2c3c([nH]c4ccc(Br)cc34)[C@H]3C(=O)N(c4ccccc4)C(=O)[C@H]3[C@H]2C1 (stereo partly specified)
Reply | > 100 µM

* * *

Kindly supply the reported TGI values for the records listed here.
# Test system: HL-60(TB) leukemia
# Test Method Notes: NCI tumour cell line growth inhibition, 48 h

Ask | Item under review: Fc1cccc(F)c1C1SCC2=Nc3ccccc3CN21 (stereo not drawn) . Reported TGI?
Reply | > 100 µM

Ask | Repeat with O=c1cnn(C2OC(CO)C(O)C(F)C2O)c(=O)[nH]1 (stereo not drawn)
Reply | > 100 µM

Ask | Repeat with CCOC(=O)CC(C)C(C#N)(OP1(=O)OC(c2ccccc2)C(C)N1C)c1ccccc1 (stereo not drawn)
Reply | 78.7 µM

* * *

# Test system: SW-620 colon
# Test Method Notes: NCI tumour cell line growth inhibition, 48 h; in the data active means GI50 below about 0.43 µM; inactive means the rest
Select the matching outcome among active, inactive

Ask | Write down the call the test reported for this compound. Item: O=C1C(=O)c2ccc(Br)cc2-c2cc(Br)ccc21
Reply | inactive

Ask | Repeat with CCCC[C@@H]1NC(=O)[C@H](CCCCN)NC(=O)[C@H](CCCNC(=N)N)NC(=O)[C@H](CC(C)C)NC(=O)[C@@H](NC(=O)[C@H](Cc2cccc(Cl)c2)NC(=O)[C@@H]2CCCN2C(=O)[C@@H](NC(C)=O)C(C)C)CCSSC[C@@H](C(=O)N[C@@H](CCCCN)C(=O)N2CCC[C@H]2C(=O)N2CCC[C@H]2C(=O)N[C@@H](CCC(=O)O)C(N)=O)NC(=O)[C@H](Cc2ccccc2)NC(=O)[C@H](CO)NC(=O)[C@H](C)NC(=O)[C@@H]2CCCN2C1=O
Reply | inactive

Ask | Repeat with O=C1OCC(c2ccc(O)c(O)c2)=C1c1cc(O)c(O)c(O)c1
Reply | inactive

Ask | Repeat with Brc1c[n+](Cc2ccc3ccccc3c2)cn1Cc1ccc2ccccc2c1
Reply | inactive

Ask | Repeat with CC1(C)CCC(S(=O)(=O)c2ccc3c(c2)/C(=N\O)c2cc(S(=O)(=O)N4CCC(O)(c5cccc(C(F)(F)F)c5)CC4)ccc2-3)CC1
Reply | active

Ask | Repeat with COc1ccccc1-c1cc2c3c(nc4ccccc42)C(=O)c2cccnc2-c3n1
Reply | inactive

* * *

# Test system: MDA-MB-231 breast
# Test Method Notes: NCI tumour cell line growth inhibition, 48 h; in the data active means GI50 below about 0.43 µM; inactive means the rest
Select the matching outcome among yes (1) (active), no (0) (inactive)

Ask | Write down the call the test reported for this molecule. Item: Cc1ccc(S(=O)(=O)N(C)C)cc1[N+](=O)[O-]
Reply | no (0)

Ask | Repeat with CCC(=O)Sc1ccccc1C(=O)Nc1ccc(Cl)cc1
Reply | no (0)

Ask | Repeat with c1ccc2c(c1)O[As](O[As]1Oc3ccccc3O1)O2
Reply | no (0)

Ask | Repeat with COC[C@H]1C(=O)NCC(=O)N2NCCC[C@H]2C(=O)N(O)[C@H](C)C(=O)O[C@@H](C(C)C)[C@H](NC(=O)[C@](C)(O)[C@]2(O)CC[C@@H](CC(C)C)[C@H](C)O2)C(=O)N2NCCC[C@@H]2C(=O)N1O
Reply | yes (1)

Ask | Repeat with COCCNCC(O)Cn1c2ccc(Cl)cc2c2cc(Cl)ccc21 (centres undefined)
Reply | no (0)

Ask | Repeat with COc1ccc(C(CC(=O)c2ccccc2)C(C(=O)c2ccccc2)C(c2ccc(OC)cc2)C2C(=O)NC(=O)NC2=O)cc1 (centres undefined)
Reply | no (0)

Ask | Repeat with C[C@@H]1O[C@@H](O[C@H]2C[C@@H](O)[C@]3(CO)C4C(CC[C@]3(O)C2)[C@@]2(O)CC[C@H](C3=CC(=O)OC3)[C@@]2(C)C[C@H]4O)[C@H](O)[C@H](O)[C@H]1O (some centres undefined)
Reply | yes (1)

Ask | Repeat with O=C(c1ccccc1)c1ccc(-c2ccc(O)cc2)cc1
Reply | no (0)

Ask | Repeat with CS(=O)(=O)c1nccc(-c2c(-c3cccc(OCc4ccc(F)cc4)c3)nc3sccn23)n1
Reply | no (0)

* * *

# Tested on: HCT-116 colon
# Test Method Notes: NCI tumour cell line growth inhibition, 48 h
Quantity Kind: log10 of TGI (log10 of the value in µM)
Reminder: these figures are log10 of reported TGI, in µM before transformation.

Ask | Item under review: [Cu+2].[Cu+2].[O-]c1ccccc1C=Nc1ccccc1[O-].[O-]c1ccccc1C=Nc1ccccc1[O-] . Reported log10 of TGI?
Reply | 0.82

Ask | Repeat with C=C1CC2CC[C@@]34C[C@@H]5O[C@@H]6C(O[C@H]7CC[C@H](CC(=O)OC8[C@@H](C)C9OC%10C[C@]%11(C[C@@H]%12O[C@@]%13(C[C@@H](C)[C@@H]%12O%11)C[C@H](C)[C@@H]%11OC%12CC(C(O)CO)OC%12C[C@@H]%11O%13)OC%10CC9O[C@H]8C[C@H]8O[C@@H](CC[C@@H]1O2)C[C@@H](C)C8=C)O[C@@H]7[C@@H]6O3)C5O4 (stereo not given in full)
Reply | -2.49

Ask | Repeat with Brc1c[n+](Cc2ccc3ccccc3c2)cn1Cc1ccc2ccccc2c1
Reply | 0.40

Ask | Repeat with CC(C)CN1CN(c2ccccc2)C2(CCN(CC(C)(c3ccc(F)cc3)C3OCCO3)CC2)C1=O (stereo not given)
Reply | 1.14

Ask | Repeat with FC(F)(F)c1cc(Nc2ccc3c(OCCCN4CCOCC4)cccc3n2)ccc1Cl
Reply | 0.66

Ask | Repeat with CCC(=O)Sc1ccccc1C(=O)Nc1ccc(Cl)cc1
Reply | 1.12

Ask | Repeat with C=C1C(=O)O[C@H]2[C@H]1CC/C(COC(=O)OCCCCCOC(=O)OC/C1=C/CC[C@@]3(C)O[C@H]3[C@H]3OC(=O)C(=C)[C@@H]3CC1)=C\CC[C@@]1(C)O[C@@H]21
Reply | -0.30

Ask | Repeat with COc1cc2c(cc1O)[C@H](C)C(c1ccc(Cl)cc1)O2 (stereo not given in full)
Reply | 1.48

Ask | Repeat with COc1ccc2c(c1)C(=O)c1c-2c(NCCCN(C)C)nc2ccccc12
Reply | 0.42

Ask | Repeat with O=C1OCC(c2ccc(O)c(O)c2)=C1c1cc(O)c(O)c(O)c1
Reply | 1.55

Ask | Repeat with O=C(CCN1CCCCC1CCO)Nc1ccc2c(c1)C(=O)c1ccc(NC(=O)CCN3CCCCC3CCO)cc1C2=O (stereo not given)
Reply | 1.17

Ask | Repeat with CN(C)CCC1(C2=CCCC2)CC/C(=C\c2ccc3c(c2)OCO3)C1=O (stereo not given)
Reply | 1.43

Ask | Repeat with CCCOC(=O)N[C@H]1CCc2c(Br)c(OC)c(OC)c(OC)c2-c2ccc(SC)c(=O)cc21
Reply | 0.71

Ask | Repeat with O=C1Nc2ccc(F)c3c(OCCO)cc(-c4ccc[nH]4)c1c23
Reply | 1.31

Ask | Repeat with O=C(CC12CC3CC(CC(C3)C1)C2)NCCOCCOCCNC(=O)c1cc2c(o1)C(=O)c1ccccc1C2=O
Reply | 0.70

Ask | Repeat with Oc1c(OCc2nnc(CCCCCCCCc3nnc(COc4ccc5ccccc5c4O)n3Nc3ccccc3)n2Nc2ccccc2)ccc2ccccc12
Reply | 1.39

Ask | Repeat with O=C(NNc1nc2cc(F)ccc2n2c(CN3CCOCC3)ccc12)c1ccccc1
Reply | 0.14
